- Measurement target: BRD4 protein (Homo sapiens (Human))
- Test: BRD4 protein degradation inducing action in LNCaP cells (immunofluorescence, 6 hr)
- Type: cell-based
- Experimental setup: anti-BRD4 fluorescence intensity
Reported metric: DC50 (nM)

(a) COC(=O)C[C@@H]1N=C(c2ccc(-c3cnc(C(=O)NCc4ccc(S(=O)(=O)Nc5ccc(C)c6c(C#N)c[nH]c56)cc4)c(C)c3)cc2)c2c(sc(C)c2C)-n2c(C)nnc21
(b) COC(=O)C[C@@H]1N=C(c2ccc(-c3ccc4cc(C(=O)NCc5ccc(S(=O)(=O)Nc6ccc(C)c7c(C#N)c[nH]c67)cc5)sc4c3)cc2)c2c(sc(C)c2C)-n2c(C)nnc21
(c) COC(=O)C[C@@H]1N=C(c2ccc(-c3ccc(C(=O)NCc4ccc(S(=O)(=O)Nc5ccc(C)c6c(C#N)c[nH]c56)cc4)cc3C)cc2)c2c(sc(C)c2C)-n2c(C)nnc21
(d) COC(=O)C[C@@H]1N=C(c2ccc(-c3ccc(C(=O)NCc4ccc(S(=O)(=O)Nc5ccc(C)c6c(C#N)c[nH]c56)cc4C)cc3)cc2)c2c(sc(C)c2C)-n2c(C)nnc21
Prompt: Parameters: sort_field (DC50), sort_dir (desc). Your reply should list the labels following the order given in the request.
Completion: b, c, d, a
(b: 0.64 nM, c: 0.32 nM, d: 0.13 nM, a: 0.029 nM)

(I) COC(=O)C[C@@H]1N=C(c2ccc(-c3ccc(C(=O)N[C@H](C)c4ccc(S(=O)(=O)Nc5ccc(C)c6c(C#N)c[nH]c56)cc4)cc3Cl)cc2)c2c(sc(C)c2C)-n2c(C)nnc21
(II) COC(=O)C[C@@H]1N=C(c2ccc(-c3ccc(C(=O)N[C@H](C)c4ccc(S(=O)(=O)Nc5ccc(C)c6c(C#N)c[nH]c56)cc4)cc3F)cc2)c2c(sc(C)c2C)-n2c(C)nnc21
(III) COC(=O)C[C@@H]1N=C(c2ccc(-c3ccc(C(=O)N[C@H](C)c4ccc(S(=O)(=O)Nc5ccc(C)c6c(C#N)c[nH]c56)cc4)nc3)cc2)c2c(sc(C)c2C)-n2c(C)nnc21
Prompt: Let's sort these by DC50, smallest first. Go ahead? Your reply should list the labels following the order given in the request.
Completion: III, II, I
(III: 0.041 nM, II: 0.074 nM, I: 0.23 nM)

###

- Tested on: human acute myeloid leukemia MV-4-11 cell
- Test: Cytotoxic action on MV-4-11 cells (WST-8, 96 hr)
- Assay type: cell-based
- Experimental setup: MV4-11, MV-4-11, 96 hr
- Description: The cytotoxic action of the compound of the present invention against human cancer cells was evaluated in vitro. […] After culturing, the viable cell number was measured using a cell number measurement WST-8 kit (Kishida Chemical Co., Ltd.). […] It was calculated from the straight line connecting the cell survival rate at two points enclosing the 50% cell survival rate and the compound concentration. […]
Reported metric: pIC50
In textbook form, pIC50 equals minus log to base ten of the concentration in mol/L.

The compound identified as COC(=O)C[C@@H]1N=C(c2ccc(-c3ccc(C(=O)NCc4ccc(S(=O)(=O)Nc5ccc(C)c6c(C#N)c[nH]c56)cc4)cc3)cc2)c2c(sc(C)c2C)-n2c(C)nnc21 registered its pIC50 at 9.80

###

# key: entry, value: IC50
- Measurement target: BRD4 protein (Homo sapiens (Human), UniProt O60885)
- Test: Inhibitory action on binding of BRD4 protein and acetylated histone H4 (TR-FRET)
- Experimental setup: BRD4-1 (GST) and acetylated histone H4 peptide, 3 hr
Give a bare numeral; the unit nM is implied.

Entry smiles: COC(=O)C[C@@H]1N=C(c2ccc(-c3ccc(C(=O)NCc4ccc(S(=O)(=O)Nc5ccc(C)c6c(C#N)c[nH]c56)cc4)cc3)cc2)c2c(sc(C)c2C)-n2c(C)nnc21
Measured number: 29

Let's switch to this compound now.
The compound identified as COC(=O)C[C@@H]1N=C(c2ccc(-c3ccc(C(=O)NCCc4ccc(S(=O)(=O)Nc5ccc(C)c6c(C#N)c[nH]c56)cc4)cc3)cc2)c2c(sc(C)c2C)-n2c(C)nnc21 registered its IC50 at 5.7

###

- Measurement target: UniProt O60885
- Test: BRD4 protein degradation inducing action in LNCaP cells (immunofluorescence, 6 hr)
- Type: cell-based
- Experimental setup: anti-BRD4 fluorescence intensity
Reported metric: DC50 (nM)

Completed entries (count: 8):
Compound: COC(=O)C[C@@H]1N=C(c2ccc(-c3ccc(C(=O)NCc4ccc(S(=O)(=O)Nc5ccc(C)c6c(C#N)c[nH]c56)cc4)cc3)cc2)c2cc(OC)ccc2-n2c(C)nnc21 [Example Compound 133]
Unit spec: nM
DC50: 0.34

Compound: COC(=O)C[C@@H]1N=C(c2ccc(-c3ccc(C(=O)NCc4ccc(S(=O)(=O)Nc5ccc(C)c6c(Cl)c[nH]c56)cc4)cc3)cc2)c2c(sc(C)c2C)-n2c(C)nnc21 [Example 8]
Unit spec: nM
DC50: 2.4

Compound: Cc1sc2c(c1C)C(c1ccc(-c3cnc(C(=O)NCc4ccc(S(=O)(=O)Nc5ccc(C)c6c(C#N)c[nH]c56)cc4)cn3)cc1)=N[C@@H](CC(=O)OC(C)(C)C)c1nnc(C)n1-2 [Example Compound 148]
Unit spec: nM
DC50: 0.042

Compound: CCc1ccc(NS(=O)(=O)c2ccc(CCNC(=O)c3ccc(-c4ccc(C5=N[C@@H](CC(=O)OC)c6nnc(C)n6-c6sc(C)c(C)c65)cc4)c(F)c3F)cc2)c2[nH]cc(C#N)c12 [Example Compound 125]
Unit spec: nM
DC50: 0.17

Compound: CCc1ccc(NS(=O)(=O)c2ccc(CNC(=O)c3ccc(-c4ccc(C5=N[C@@H](CC(=O)OC)c6nnc(C)n6-c6sc(C)c(C)c65)cc4)c(F)c3F)cc2)c2[nH]cc(C#N)c12 [Example Compound 118]
Unit spec: nM
DC50: 0.14

Compound: COC(=O)C[C@@H]1N=C(c2ccc(-c3ccc(C(=O)NCCc4ccc(S(=O)(=O)Nc5ccc(C)c6c(C#N)c[nH]c56)cc4)cc3)cc2)c2c(sc(C)c2C)-n2c(C)nnc21 [Example 11]
Unit spec: nM
DC50: 0.083

Compound: COC(=O)C[C@@H]1N=C(c2ccc(-c3ccc(C(=O)NCc4ccc(S(=O)(=O)Nc5ccc(C)c6c(C#N)c[nH]c56)cc4)cc3)cc2)c2c(sc(C)c2C)-n2c(C)nnc21 [Example 1]
Unit spec: nM
DC50: 0.15

Compound: CCc1ccc(NS(=O)(=O)c2ccc(CCNC(=O)c3ccc(-c4ccc(C5=N[C@@H](CC(=O)OC)c6nnc(C)n6-c6sc(C)c(C)c65)cc4)cn3)cc2)c2[nH]cc(C#N)c12 [Example 110]
Unit spec: nM
DC50: 0.063

(1) CCc1ccc(NS(=O)(=O)c2ccc(CNC(=O)c3ccc(-c4ccc(C5=N[C@@H](CC(=O)OC(C)(C)C)c6nnc(C)n6-c6sc(C)c(C)c65)cc4)cc3)cc2)c2[nH]cc(C#N)c12 [Example Compound 135]
(2) COC(=O)C[C@@H]1N=C(c2ccc(-c3ccc(C(=O)NCc4ccc(S(=O)(=O)Nc5ccc(C)c6c(C#N)c[nH]c56)cc4)c(F)c3)cc2)c2c(sc(C)c2C)-n2c(C)nnc21 [Example 2]
(3) CCc1ccc(NS(=O)(=O)c2ccc(CNC(=O)c3ccc(-c4ccc(C5=N[C@@H](CC(=O)OC)c6nnc(C)n6-c6sc(C)c(C)c65)cc4)c(C)c3)cc2)c2[nH]cc(C#N)c12 [Example Compound 117]
Prompt: Let's sort these by DC50, smallest first. Go ahead? Your reply should list the labels following the order given in the request.
Completion: 3, 2, 1
(3: 0.16 nM, 2: 0.23 nM, 1: 0.38 nM)

(1) COC(=O)C[C@@H]1N=C(c2ccc(-c3ccc(C(=O)NCc4ccc(S(=O)(=O)Nc5ccc(C)c6c(C#N)c[nH]c56)cc4)c(Cl)c3)cc2)c2c(sc(C)c2C)-n2c(C)nnc21 [Example 3]
(2) COC(=O)C[C@@H]1N=C(c2ccc(-c3cc(C)c(C(=O)NCc4ccc(S(=O)(=O)Nc5ccc(C)c6c(C#N)c[nH]c56)cc4)cc3F)cc2)c2c(sc(C)c2C)-n2c(C)nnc21 [Example 83]
Prompt: Between the two listed entries 1 and 2 , which has its DC50 at the higher number? In your reply, give the label of the chosen option.
Completion: 1

(A) CCCOC(=O)C[C@@H]1N=C(c2ccc(-c3ccc(C(=O)NCc4ccc(S(=O)(=O)Nc5ccc(C)c6c(C#N)c[nH]c56)cc4)cc3)cc2)c2c(sc(C)c2C)-n2c(C)nnc21 [Example Compound 130]
(B) CCc1ccc(NS(=O)(=O)c2ccc(CNC(=O)c3cc(F)c(-c4ccc(C5=N[C@@H](CC(=O)OC)c6nnc(C)n6-c6sc(C)c(C)c65)cc4)cc3C)cc2)c2[nH]cc(C#N)c12 [Example Compound 120]
Prompt: Between the two listed entries A and B , which has its DC50 at the higher number? In your reply, give the label of the chosen option.
Completion: B
(B: 0.26 nM, A: 0.028 nM)

(A) CCc1ccc(NS(=O)(=O)c2ccc([C@@H](C)NC(=O)c3ccc(-c4ccc(C5=N[C@@H](CC(=O)OC)c6nnc(C)n6-c6sc(C)c(C)c65)cc4)cn3)cc2)c2[nH]cc(C#N)c12 [Example 109]
(B) CCc1ccc(NS(=O)(=O)c2ccc([C@@H](C)NC(=O)c3ccc(-c4ccc(C5=N[C@@H](CC(=O)OC)c6nnc(C)n6-c6sc(C)c(C)c65)cc4)c(F)c3)cc2)c2[nH]cc(C#N)c12 [Example Compound 121]
Prompt: Between the two listed entries A and B , which has its DC50 at the higher number? In your reply, give the label of the chosen option.
Completion: B

Taken from patent US11890288B2.
